assay protocol: Inhibition of NS5A in HCV genotype 2a JFH-1 infected in human Huh7.5.1 cells assessed as reduction in viral replication after 3 days by luciferase reporter gene assay
readout label: pEC50
Please report pEC50 as the negative decimal logarithm of the molar concentration, giving only the number.

Name the recorded pEC50 for COC(=O)N[C@H](C(=O)N1CCC[C@H]1C(=O)Nc1ccc([C@@H]2CC[C@@H](c3ccc(NC(=O)[C@@H]4CCCN4C(=O)[C@@H](NC(=O)OC)C(C)C)cc3)N2c2ccc([Si](C)(C)C)cc2)cc1)C(C)C . 11.60

Name the recorded pEC50 for COC(=O)N[C@H](C(=O)N1CCC[C@H]1C(=O)Nc1ccc([C@@H]2CC[C@@H](c3ccc(NC(=O)[C@@H]4CCCN4C(=O)[C@@H](NC(=O)OC)C(C)C)cc3)N2c2ccc([Si](C)(C)C(C)(C)C)cc2)cc1)C(C)C . 11.96

Name the recorded pEC50 for COC(=O)N[C@H](C(=O)N1CCC[C@H]1C(=O)Nc1ccc([C@@H]2CC[C@@H](c3ccc(NC(=O)[C@@H]4CCCN4C(=O)[C@@H](NC(=O)OC)C(C)C)cc3)N2c2ccc(C(C)(C)C)cc2)cc1)C(C)C . 11.59

* * *

// reported EC50 per item
assay protocol: Inhibition of NS5A in HCV genotype 1b infected in human HuH7 replicon cells assessed as reduction in viral replication after 3 days by luciferase reporter gene assay
Write the number in pM without appending the unit.

smiles entry	EC50 (pM)
CC[Si](CC)(CC)c1ccc(N2[C@@H](c3ccc(NC(=O)[C@@H]4CCCN4C(=O)[C@@H](NC(=O)OC)C(C)C)cc3)CC[C@@H]2c2ccc(NC(=O)[C@@H]3CCCN3C(=O)[C@@H](NC(=O)OC)C(C)C)cc2)cc1	6
CC[Si](CC)(CC)c1ccc(N2[C@@H](c3ccc(NC(=O)[C@@H]4CCCN4C(=O)[C@@H](NC(=O)OC)C(C)C)cc3)CC[C@H]2c2ccc(NC(=O)[C@@H]3CCCN3C(=O)[C@@H](NC(=O)OC)C(C)C)cc2)cc1	7
COC(=O)N[C@H](C(=O)N1CCC[C@H]1C(=O)Nc1ccc([C@@H]2CC[C@@H](c3ccc(NC(=O)[C@@H]4CCCN4C(=O)[C@@H](NC(=O)OC)C(C)C)cc3)N2c2ccc([Si](C)(C)C(C)(C)C)cc2)cc1)C(C)C	3
CC[Si](CC)(CC)c1ccc(N2[C@H](c3ccc(NC(=O)[C@@H]4CCCN4C(=O)[C@@H](NC(=O)OC)C(C)C)cc3)CC[C@H]2c2ccc(NC(=O)[C@@H]3CCCN3C(=O)[C@@H](NC(=O)OC)C(C)C)cc2)cc1	3

Below: the item to evaluate.
Name the recorded EC50 for COC(=O)N[C@H](C(=O)N1CCC[C@H]1C(=O)Nc1ccc([C@H]2CC[C@H](c3ccc(NC(=O)[C@@H]4CCCN4C(=O)[C@@H](NC(=O)OC)C(C)C)cc3)N2c2ccc([Si](C)(C)C)cc2)cc1)C(C)C . 7
